Data provenance: ChEMBL document CHEMBL1142837

Target: Peroxisome proliferator-activated receptor gamma (Homo sapiens)
Sequence (P37231 whole entry): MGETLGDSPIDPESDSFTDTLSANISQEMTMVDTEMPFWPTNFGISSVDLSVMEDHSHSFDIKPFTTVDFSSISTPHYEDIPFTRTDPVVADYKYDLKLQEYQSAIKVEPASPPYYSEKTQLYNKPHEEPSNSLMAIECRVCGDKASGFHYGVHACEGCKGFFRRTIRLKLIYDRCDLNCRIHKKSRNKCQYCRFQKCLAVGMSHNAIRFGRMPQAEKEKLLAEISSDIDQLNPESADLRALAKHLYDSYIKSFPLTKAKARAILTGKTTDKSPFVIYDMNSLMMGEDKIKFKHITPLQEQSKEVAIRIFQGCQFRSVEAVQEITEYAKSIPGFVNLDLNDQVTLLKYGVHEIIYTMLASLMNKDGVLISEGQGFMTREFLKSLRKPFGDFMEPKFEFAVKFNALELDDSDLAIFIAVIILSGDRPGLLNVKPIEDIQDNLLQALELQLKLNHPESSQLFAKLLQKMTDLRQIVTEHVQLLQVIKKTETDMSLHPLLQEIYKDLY
Assay: In vitro effective concentration against human peroxisome proliferator activated receptor gamma/Gal4 in cell-based transactivation assay
Assignment: determine reported EC50 for the given compounds.

# example entries with known answers
[ask] Look up Peroxisome proliferator-activated receptor gamma (Homo sapiens) data: EC50 of CCCCCOc1ncccc1C(O)C/C=C/CCCC(=O)OC (stereo unspecified) , then report it.
[reply] > 10 µM

[ask] Please look at CCCCCOc1cc2ccccc2cc1C(O)CC#CCCCC(=O)OC (stereo unspecified) and tell me its recorded EC50 on Peroxisome proliferator-activated receptor gamma (Homo sapiens).
[reply] > 10 µM

[ask] Please report EC50 with Peroxisome proliferator-activated receptor gamma (Homo sapiens) for item CCCCCOc1ccccc1C(O)CC=CCCCC(=O)O (stereo unspecified) .
[reply] 0.34 µM

[ask] Name the recorded EC50 of CCCCCOc1cc2ccccc2cc1C(O)CC#CCCCC(=O)O (stereo unspecified) , assay system Peroxisome proliferator-activated receptor gamma (Homo sapiens).
[reply] > 10 µM

[ask] Lab note: record EC50 of CCCCCOc1nc2ccccc2cc1C(O)CCCCCCCC(=O)OC (stereo unspecified) tested on Peroxisome proliferator-activated receptor gamma (Homo sapiens).
[reply] > 10 µM

[ask] Write down measured EC50 (Peroxisome proliferator-activated receptor gamma (Homo sapiens)) for this compound. CCCCCOc1nc2ccccc2cc1C(O)CC=CCCCC(=O)OC (stereo unspecified)
[reply] 1.55 µM

[ask] Report EC50 under test system Peroxisome proliferator-activated receptor gamma (Homo sapiens) for CCCCCOc1nc2ccccc2cc1C(O)CC#CCCCC(=O)OC (stereo unspecified) .
[reply] 1.41 µM

[ask] Write down the reported EC50 (system: Peroxisome proliferator-activated receptor gamma (Homo sapiens)) of CCCCCOc1ccccc1C(O)CC#CCCCC(=O)O (stereo unspecified)
[reply] > 10 µM

Required: EC50, one value per compound below.
1. CCCCCOc1cc2ccccc2cc1C(O)CCCCCCC(=O)O (stereo unspecified)
2. CCCCCOc1ccccc1C(O)CCCCCCC(=O)OC (stereo unspecified)
3. CCCCCOc1ncccc1C(O)C/C=C/CCCC(=O)O (stereo unspecified)

[reply]
1. > 10 µM
2. > 10 µM
3. > 10 µM
